Biological target: furin, P09958;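 note: purified furin at 1:10 enzyme:substrate in 50 mM HEPES pH 7.5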
Sequence (P09958 whole entry): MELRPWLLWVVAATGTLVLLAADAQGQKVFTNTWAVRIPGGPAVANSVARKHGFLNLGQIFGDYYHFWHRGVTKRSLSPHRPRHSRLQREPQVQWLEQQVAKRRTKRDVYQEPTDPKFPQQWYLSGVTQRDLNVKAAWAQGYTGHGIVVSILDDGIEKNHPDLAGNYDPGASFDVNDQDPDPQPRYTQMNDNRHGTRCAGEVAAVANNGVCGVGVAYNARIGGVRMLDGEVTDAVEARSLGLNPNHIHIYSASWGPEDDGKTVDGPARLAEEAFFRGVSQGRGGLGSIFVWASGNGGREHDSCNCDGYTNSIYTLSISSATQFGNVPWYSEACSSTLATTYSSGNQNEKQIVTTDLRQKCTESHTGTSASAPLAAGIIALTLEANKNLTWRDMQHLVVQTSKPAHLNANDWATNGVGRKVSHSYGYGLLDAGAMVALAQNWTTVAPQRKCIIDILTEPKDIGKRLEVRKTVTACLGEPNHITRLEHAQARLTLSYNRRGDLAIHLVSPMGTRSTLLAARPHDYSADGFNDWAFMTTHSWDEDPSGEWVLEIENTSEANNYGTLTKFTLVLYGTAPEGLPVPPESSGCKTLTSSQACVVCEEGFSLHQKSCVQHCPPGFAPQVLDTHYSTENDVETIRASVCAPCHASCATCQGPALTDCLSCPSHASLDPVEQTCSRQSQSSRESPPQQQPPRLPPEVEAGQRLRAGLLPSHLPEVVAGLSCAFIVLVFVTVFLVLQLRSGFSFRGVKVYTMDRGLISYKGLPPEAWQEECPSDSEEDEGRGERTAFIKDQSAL
Test: furin cleavage Z-score vs untreated control; higher = more cleavage, active = 3.5 or more, inactive = 1 or less, 8 variable residues between constant flanks
Conditions: 15 min
The other results are listed elsewhere or left out. The hit rate among all sequences tested is not known here.
label 1 means recorded furin cleavage Z-score is -0.5 or above; label 0 means it is below -0.5.

Known results for sequences:
> print(dat)
                     seq.string      cat
1   CALRKRLLRDAGNASASA [FS-686]  label 1
2  CAPSRRQQRAAGNASASA [FS-1554]  label 1
3   CAGRSRDLRGAGNASASA [FS-165]  label 0

QUERY: Reported furin cleavage Z-score reaches at least -0.5 for CAREKRELRQAGNASASA [FS-2657] ?
RESULT: label 1

QUERY: API: above_or_equal(metric=furin cleavage Z-score, cutoff=-0.5) for item CASMSYSWTGAGNASASA [HC1371]
RESULT: label 0

QUERY: Could you verify whether the entry CASTKVPAAYAGNASASA [HC779] shows furin cleavage Z-score of no less than -0.5?
RESULT: label 0

QUERY: For this sequence, is measured furin cleavage Z-score -0.5 or higher? CAFRKRSHSKAGNASASA [FS-2120]
RESULT: label 0

QUERY: Is the recorded value of furin cleavage Z-score equal to or greater than -0.5 for this sequence? CAEVVTSTWFAGNASASA [HC2247]
RESULT: label 1

QUERY: Textbook exercise: given the entry CARRVRSAEEAGNASASA [FS-2376] , state whether its furin cleavage Z-score is greater than or equal to -0.5.
RESULT: label 1
